Let's go through some pIC50 measurements on Protease (Human immunodeficiency virus 1, UniProt Q9YQ12) together.
Sequence (Q9YQ12 whole entry): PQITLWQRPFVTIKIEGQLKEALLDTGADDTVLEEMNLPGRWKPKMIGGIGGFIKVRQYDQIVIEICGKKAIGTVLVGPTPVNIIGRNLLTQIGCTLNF
For clarity, pIC50 is expressed as the negative log10 of concentration in mol/L.

If you can, please state the reported pIC50 value of COc1ccc(S(=O)(=O)N(CC(C)C)C[C@@H](O)[C@H](Cc2ccccc2)NC(=O)CN(CC(=O)N2CCOCC2)c2c(C)cccc2C)cc1 .
7.82

Fill blank: measured pIC50 of the compound Cc1c(O)cccc1N(CC(=O)N[C@@H](Cc1ccccc1)[C@@H](O)CN(CC(C)C)S(=O)(=O)c1ccc(N)cc1)CC(=O)N1CCOCC1 is ____.
4.79

// returns reported pIC50 for input COc1ccc(N(CC(=O)N[C@@H](Cc2ccccc2)[C@H](O)CN(CC(C)C)S(=O)(=O)c2ccc(OC)cc2)CC(=O)N(C)C)cc1
6.66

Find the recorded pIC50 belonging to Cc1cccc(C)c1N(CC(=O)N[C@@H](Cc1ccccc1)[C@@H](O)CN(CC(C)C)S(=O)(=O)c1ccc([N+](=O)[O-])cc1)CC(=O)N1CCOCC1 and report it.
5.23

Dear colleague, I am looking for the recorded pIC50 of the following compound: Cc1cccc(C)c1N(CC(=O)N[C@@H](Cc1ccccc1)[C@@H](O)CN(CC(C)C)S(=O)(=O)c1ccc(N)cc1)CC(=O)N(C)C
6.31

For the compound Cc1cccc(C)c1N(CC(=O)N[C@@H](Cc1ccccc1)[C@H](O)CN(CC(C)C)S(=O)(=O)c1ccc(N)cc1)CC(=O)N1CCOCC1 , what pIC50 is on record?
7.19

Dear colleague, I am looking for the recorded pIC50 of the following compound: COc1ccc(N(CC(=O)N[C@@H](Cc2ccccc2)[C@H](O)CN(CC(C)C)S(=O)(=O)c2ccc(CO)cc2)CC(=O)N2CCOCC2)cc1
6.05

I would be grateful if you could share the reported pIC50 for Cc1c(O)cccc1N(CC(=O)N[C@@H](Cc1ccccc1)[C@H](O)CN(CC(C)C)S(=O)(=O)c1ccc(CO)cc1)CC(=O)N1CCOCC1 .
5.92

GET /values?readout=pIC50&item= Cc1cccc(C)c1N(CC(=O)N[C@@H](Cc1ccccc1)[C@H](O)CN(CC(C)C)S(=O)(=O)c1ccc(CO)cc1)CC(=O)N1CCOCC1
7.14

Name the recorded pIC50 for COc1ccc(S(=O)(=O)N(CC(C)C)C[C@@H](O)[C@H](Cc2ccccc2)NC(=O)CN(CC(=O)N(C)C)c2cccc(O)c2C)cc1 .
6.27

Consider the compound shown here: Cc1cccc(C)c1N(CC(=O)N[C@@H](Cc1ccccc1)[C@H](O)CN(CC(C)C)S(=O)(=O)c1ccc([N+](=O)[O-])cc1)CC(=O)N1CCOCC1 What is its recorded pIC50?
7.14

I would be grateful if you could share the reported pIC50 for COc1ccc(S(=O)(=O)N(CC(C)C)C[C@H](O)[C@H](Cc2ccccc2)NC(=O)CN(CC(=O)N(C)C)c2cccc(O)c2C)cc1 .
5.24

State the recorded pIC50 for this entry: COc1ccc(N(CC(=O)N[C@@H](Cc2ccccc2)[C@@H](O)CN(CC(C)C)S(=O)(=O)c2ccc(N)cc2)CC(=O)N(C)C)cc1
5.16
